Reported Kd values are given for each entry in this list.
- systemTested: feline FcRn complex (FcRn-α subunit and β-microglobulin), biotin labeled (feline)
- assayNotes: SPR, pH 6
Answer with a number only, understood to be in nM.

Solved entries (count: 5):
>  <binder>
feline IgG1a A378T (antibody, part only; not given: Variable domains, not shown: another chain or arm of the molecule; small tags and cut ends) constant: ASTTAPSVFPLAPSCGTTSGATVALACLVLGYFPEPVTVSWNSGALTSGVHTFPAVLQASGLYSLSSMVTVPSSRWLSDTFTCNVAHPPSNTKVDKTVRKTDHPPGPKPCDCPKCPPPEMLGGPSIFIFPPKPKDTLSISRTPEVTCLVVDLGPDDSDVQITWFVDNTQVYTAKTSPREEQFNSTYRVVSVLPILHQDWLKGKEFKCKVNSKSLPSPIERTISKAKGQPHEPQVYVLPPAQEELSRNKVSVTCLIKSFHPPDITVEWEITGQPEPENNYRTTPPQLDSDGTYFVYSKLSVDRSHWQRGNTYTCSVSHEALHSHHTQKSLTQSPGK

>  <measurementName>
Kd

>  <unitOfMeasurement>
nM

>  <observedValue>
59.2

$$$$
>  <binder>
feline IgG1a T256N (antibody, part only; not given: Variable domains, not shown: another chain or arm of the molecule) constant: ASTTAPSVFPLAPSCGTTSGATVALACLVLGYFPEPVTVSWNSGALTSGVHTFPAVLQASGLYSLSSMVTVPSSRWLSDTFTCNVAHPPSNTKVDKTVRKTDHPPGPKPCDCPKCPPPEMLGGPSIFIFPPKPKDTLSISRNPEVTCLVVDLGPDDSDVQITWFVDNTQVYTAKTSPREEQFNSTYRVVSVLPILHQDWLKGKEFKCKVNSKSLPSPIERTISKAKGQPHEPQVYVLPPAQEELSRNKVSVTCLIKSFHPPDIAVEWEITGQPEPENNYRTTPPQLDSDGTYFVYSKLSVDRSHWQRGNTYTCSVSHEALHSHHTQKSLTQSPGK

>  <measurementName>
Kd

>  <unitOfMeasurement>
nM

>  <observedValue>
77.4

$$$$
>  <binder>
feline IgG1a S434A (antibody, part only; not given: Variable domains, not shown: another chain or arm of the molecule) constant: ASTTAPSVFPLAPSCGTTSGATVALACLVLGYFPEPVTVSWNSGALTSGVHTFPAVLQASGLYSLSSMVTVPSSRWLSDTFTCNVAHPPSNTKVDKTVRKTDHPPGPKPCDCPKCPPPEMLGGPSIFIFPPKPKDTLSISRTPEVTCLVVDLGPDDSDVQITWFVDNTQVYTAKTSPREEQFNSTYRVVSVLPILHQDWLKGKEFKCKVNSKSLPSPIERTISKAKGQPHEPQVYVLPPAQEELSRNKVSVTCLIKSFHPPDIAVEWEITGQPEPENNYRTTPPQLDSDGTYFVYSKLSVDRSHWQRGNTYTCSVSHEALHAHHTQKSLTQSPGK

>  <measurementName>
Kd

>  <unitOfMeasurement>
nM

>  <observedValue>
4.49

$$$$
>  <binder>
feline IgG1a S252H/Q311Y (antibody, part only; not given: variable domains and light chain, not shown: another chain or arm of the molecule; small tags and cut ends) constant: ASTTAPSVFPLAPSCGTTSGATVALACLVLGYFPEPVTVSWNSGALTSGVHTFPAVLQASGLYSLSSMVTVPSSRWLSDTFTCNVAHPPSNTKVDKTVRKTDHPPGPKPCDCPKCPPPEMLGGPSIFIFPPKPKDTLHISRTPEVTCLVVDLGPDDSDVQITWFVDNTQVYTAKTSPREEQFNSTYRVVSVLPILHYDWLKGKEFKCKVNSKSLPSPIERTISKAKGQPHEPQVYVLPPAQEELSRNKVSVTCLIKSFHPPDIAVEWEITGQPEPENNYRTTPPQLDSDGTYFVYSKLSVDRSHWQRGNTYTCSVSHEALHSHHTQKSLTQSPGK

>  <measurementName>
Kd

>  <unitOfMeasurement>
nM

>  <observedValue>
12.1

$$$$
>  <binder>
feline IgG1a S252Y/S428Y/Q311W (antibody, part only; not given: Variable domains, not shown: another chain or arm of the molecule) constant: ASTTAPSVFPLAPSCGTTSGATVALACLVLGYFPEPVTVSWNSGALTSGVHTFPAVLQASGLYSLSSMVTVPSSRWLSDTFTCNVAHPPSNTKVDKTVRKTDHPPGPKPCDCPKCPPPEMLGGPSIFIFPPKPKDTLYISRTPEVTCLVVDLGPDDSDVQITWFVDNTQVYTAKTSPREEQFNSTYRVVSVLPILHWDWLKGKEFKCKVNSKSLPSPIERTISKAKGQPHEPQVYVLPPAQEELSRNKVSVTCLIKSFHPPDIAVEWEITGQPEPENNYRTTPPQLDSDGTYFVYSKLSVDRSHWQRGNTYTCSVYHEALHSHHTQKSLTQSPGK

>  <measurementName>
Kd

>  <unitOfMeasurement>
nM

>  <observedValue>
67.7

$$$$

Data point: feline IgG1a D249E (antibody, part only; not given: Variable domains, not shown: another chain or arm of the molecule) constant: ASTTAPSVFPLAPSCGTTSGATVALACLVLGYFPEPVTVSWNSGALTSGVHTFPAVLQASGLYSLSSMVTVPSSRWLSDTFTCNVAHPPSNTKVDKTVRKTDHPPGPKPCDCPKCPPPEMLGGPSIFIFPPKPKETLSISRTPEVTCLVVDLGPDDSDVQITWFVDNTQVYTAKTSPREEQFNSTYRVVSVLPILHQDWLKGKEFKCKVNSKSLPSPIERTISKAKGQPHEPQVYVLPPAQEELSRNKVSVTCLIKSFHPPDIAVEWEITGQPEPENNYRTTPPQLDSDGTYFVYSKLSVDRSHWQRGNTYTCSVSHEALHSHHTQKSLTQSPGK ; Kd = 5.84

Data point: feline IgG1a A431Q (antibody, part only; not given: Variable domains, not shown: another chain or arm of the molecule) constant: ASTTAPSVFPLAPSCGTTSGATVALACLVLGYFPEPVTVSWNSGALTSGVHTFPAVLQASGLYSLSSMVTVPSSRWLSDTFTCNVAHPPSNTKVDKTVRKTDHPPGPKPCDCPKCPPPEMLGGPSIFIFPPKPKDTLSISRTPEVTCLVVDLGPDDSDVQITWFVDNTQVYTAKTSPREEQFNSTYRVVSVLPILHQDWLKGKEFKCKVNSKSLPSPIERTISKAKGQPHEPQVYVLPPAQEELSRNKVSVTCLIKSFHPPDIAVEWEITGQPEPENNYRTTPPQLDSDGTYFVYSKLSVDRSHWQRGNTYTCSVSHEQLHSHHTQKSLTQSPGK ; Kd = 6.64

Data point: feline IgG1a S252Y/S428M/Q311W (antibody, part only; not given: Variable domains, not shown: another chain or arm of the molecule) constant: ASTTAPSVFPLAPSCGTTSGATVALACLVLGYFPEPVTVSWNSGALTSGVHTFPAVLQASGLYSLSSMVTVPSSRWLSDTFTCNVAHPPSNTKVDKTVRKTDHPPGPKPCDCPKCPPPEMLGGPSIFIFPPKPKDTLYISRTPEVTCLVVDLGPDDSDVQITWFVDNTQVYTAKTSPREEQFNSTYRVVSVLPILHWDWLKGKEFKCKVNSKSLPSPIERTISKAKGQPHEPQVYVLPPAQEELSRNKVSVTCLIKSFHPPDIAVEWEITGQPEPENNYRTTPPQLDSDGTYFVYSKLSVDRSHWQRGNTYTCSVMHEALHSHHTQKSLTQSPGK ; Kd = 0.506
